Some molecules, each annotated with its measured melting point.

Take a look at these entries with their results.
| Molecule | Property Name | Reported Value |
| --- | --- | --- |
| O=c1[nH]ncc2[nH]c(-c3ccc(OC(F)F)c(OC4CC4)c3)c(Cc3ccc(F)cc3)c12 | melting point | 193 to 195 °C |
| CCCCc1c(-c2ccc(OC(F)F)c(OC3CC3)c2)[nH]c2cn[nH]c(=O)c12 | melting point | 192 to 194 °C |

Q) Recorded melting point of `C=CCc1c(-c2ccc(OC(F)F)c(OC3CC3)c2)[nH]c2cn[nH]c(=O)c12` , please.
A) 176 to 179 °C

Q) Recorded melting point of `CC(C)Oc1cc(-c2cc3c(=O)[nH]ncc3[nH]2)ccc1OC(F)F` , please.
A) 269 to 273 °C

Hey, just so you know, these numbers are from patent US8450319B2.
